What %Inh was measured for each of the following?
system: ACVR2B; conditions: concentration: 1 μM, replicates: in singlicate; n = 1;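 further: KINOMEscan kinase panel screen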
# number only, unit % dropped from output

Query: Look up %Inh for this compound: CCOc1nccc(-c2c(-c3ccc(F)cc3)ncn2C2CCNCC2)n1
Reply: 0

Query: Look up %Inh for this compound: Cl.N#CCc1ccc(Nc2nccc(Nc3ccc(Oc4ccccc4)cc3)n2)cc1
Reply: 0

Query: Look up %Inh for this compound: O=C(Nc1n[nH]c2nc(-c3ccccc3)ccc12)C1CC1
Reply: 37

Query: Look up %Inh for this compound: COc1cccc2c(-c3ccncc3)c(-c3ccc(F)cc3)nn12
Reply: 3

Query: Look up %Inh for this compound: NCCC(NC(=O)c1cc(Br)c(-c2ccnc3[nH]ccc23)s1)c1ccccc1.O=C(O)C(F)(F)F.O=C(O)C(F)(F)F (stereo not drawn)
Reply: 0

Query: Look up %Inh for this compound: O=C(Nc1n[nH]c2nc(-c3cccc(O)c3)ccc12)C1CC1
Reply: 74

Query: Look up %Inh for this compound: CC(C)c1nc(-c2cccc(NS(=O)(=O)c3c(F)cccc3F)c2)c(-c2ccnc(Nc3ccc(N4CCOCC4)nc3)n2)s1.Cl
Reply: 81

Query: Look up %Inh for this compound: CC(=O)Nc1cn2nc(Oc3cccc(NC(=O)c4cccc(C(F)(F)F)c4)c3)ccc2n1
Reply: 31

Query: Look up %Inh for this compound: Cc1nn2c(=O)cc(N3CCO[C@H](C)C3)nc2n1Cc1cccc(Cl)c1Cl
Reply: 0

Query: Look up %Inh for this compound: O=C(O)C(F)(F)F.O=c1[nH]ccc2nc(N[C@@H]3CCNC3)nc(Nc3ccc4c(c3)S(=O)(=O)CC4)c12
Reply: 3

Query: Look up %Inh for this compound: COc1ccc(C2=C(Nc3cccc(O)c3)C(=O)NC2=O)cc1
Reply: 0

Query: Look up %Inh for this compound: Fc1cc(Cl)ccc1Nc1ccnc2cc(-c3ccc(CN4CCOCC4)o3)ccc12
Reply: 88

Query: Look up %Inh for this compound: O=C(Nc1n[nH]c2nc(-c3ccccc3O)ccc12)C1CC1
Reply: 0

Query: Look up %Inh for this compound: CN(C)CCOc1ccc(-c2cc(-c3ccc(Cl)c(O)c3)c(-c3ccncc3)[nH]2)cc1.Cl.Cl
Reply: 51

Query: Look up %Inh for this compound: COC(=O)Nc1nc2cc(Oc3ccc(NC(=O)Nc4cccc(SC)c4)cc3)ccc2[nH]1.Cl
Reply: 0

Query: Look up %Inh for this compound: Cc1ccc(C)c(NC(=O)Nc2ccc(C)c(-c3ccc(C(=O)Nc4ccncc4)cc3)c2)c1
Reply: 3

Query: Look up %Inh for this compound: COC(=O)Nc1nc2ccc(Oc3ccc(NC(=O)Nc4cc(C(F)(F)F)ccc4F)cc3)cc2[nH]1.Cl
Reply: 0

Query: Look up %Inh for this compound: CN(c1ccc(NC(=O)N2CCN(CCCN3CCOCC3)CC2)cc1)c1ccnc(Nc2ccc(CS(C)(=O)=O)cc2)n1.Cl
Reply: 45

Query: Look up %Inh for this compound: COc1ccc(C)c(Nc2ccnc(Nc3ccc(-c4cnc[nH]4)cc3)n2)c1.Cl
Reply: 93.3

Query: Look up %Inh for this compound: N#CC1(c2cccc(C(=O)Nc3cccc(Oc4ccc5nc(NC(=O)C6CC6)sc5n4)c3)c2)CC1
Reply: 1

Query: Look up %Inh for this compound: CN(c1ccc(NC(=O)Nc2cccc(Cl)c2)cc1)c1ccnc(N)n1.Cl
Reply: 0
